Reference source for all entries: patent US20250195521A1

- ASSAY SYSTEM: KRAS G13C (Homo sapiens (Human), UniProt P01116+P62937, G13C)
- Sequence (P01116 other isoform, or with tags, fused parts or gaps G13C): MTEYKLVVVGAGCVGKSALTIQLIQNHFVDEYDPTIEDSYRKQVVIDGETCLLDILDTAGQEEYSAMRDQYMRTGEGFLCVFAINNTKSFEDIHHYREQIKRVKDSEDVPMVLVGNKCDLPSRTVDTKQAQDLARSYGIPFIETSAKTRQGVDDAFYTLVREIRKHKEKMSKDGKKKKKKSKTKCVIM
- Sequence (P62937 whole entry): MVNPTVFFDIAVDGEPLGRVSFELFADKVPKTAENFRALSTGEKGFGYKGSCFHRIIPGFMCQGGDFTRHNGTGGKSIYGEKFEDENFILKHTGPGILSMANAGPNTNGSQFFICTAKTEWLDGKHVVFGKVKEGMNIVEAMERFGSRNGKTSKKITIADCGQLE
- ASSAY NOTES: Ras-Raf disruption/FRET/MOA assay (BRAF RBD, Cyclophilin A)
- Assay type: biochemical
- CONDITION CONTEXT: read-out: KRAS G13C FRET IC50
pIC50: −log10 of the molar value.
ATTRIBUTE MEASURED: pIC50

INSERT INTO measurements (compound, assay_system, observed_measurement) VALUES
  ('CCn1c(-c2cccnc2[C@H](C)OC)c2c3cc(ccc31)-c1cc(O)cc(c1)C[C@H](NC(=O)[C@H](C(C)C)N(C)C(=O)C1CCCC1)C(=O)N1CCC[C@H](N1)C(=O)OCC(C)(C)C2 [Compound A219]', 'KRAS G13C (Homo sapiens (Human), UniProt P01116+P62937, G13C)', '7.00 to 8.00'),
  ('CCn1c(-c2cccnc2[C@H](C)OC)c2c3cc(ccc31)-c1csc(n1)C[C@H](NC(=O)[C@H](C(C)C)N(C)C(=O)N(C)N(C)C)C(=O)N1CCC[C@H](N1)C(=O)OCC(C)(C)C2 [Compound A454]', 'KRAS G13C (Homo sapiens (Human), UniProt P01116+P62937, G13C)', '6.00 to 7.00'),
  ('CCn1c(-c2cccnc2[C@H](C)OC)c2c3cc(ccc31)-c1cc(O)cc(c1)C[C@H](NC(=O)C(C)=C(C)C)C(=O)N1CCC[C@H](N1)C(=O)OCC(C)(C)C2 [Compound A398]', 'KRAS G13C (Homo sapiens (Human), UniProt P01116+P62937, G13C)', '6.00 to 7.00'),
  ('CCn1c(-c2cccnc2[C@H](C)OC)c2c3cc(ccc31)-c1cc(O)cc(c1)C[C@H](NC(=O)[C@H](C(C)C)N(C)C(=O)[C@H]1CCN(C(=O)[C@@H](C)N(C)C)C1)C(=O)N1CCC[C@H](N1)C(=O)OCC(C)(C)C2 [Compound A386]', 'KRAS G13C (Homo sapiens (Human), UniProt P01116+P62937, G13C)', '7.00 to 8.00'),
  ('CCn1c(-c2cccnc2[C@H](C)OC)c2c3cc(ccc31)-c1csc(n1)C[C@H](NC(=O)[C@H](C(C)C)N(C)C(=O)N1CCC[C@H](N(C)C)C1)C(=O)N1CCC[C@H](N1)C(=O)OCC(C)(C)C2 [Compound A569]', 'KRAS G13C (Homo sapiens (Human), UniProt P01116+P62937, G13C)', '6.00 to 7.00');
